Where do the numbers come from? From PubChem BioAssay (NCI).

Test system: SK-OV-3 ovarian
Experiment: NCI-60 one-dose screen, 48 h (100 = growth as untreated, 0 = no growth, -100 = all killed)
Settings: 10 µM unless noted
Experimental: Growth inhibition of the SK-OV-3 human tumor cell line is measured as a screen for anti-cancer activity. Cells are grown in 96 well plates and exposed to the test compound for 48 hours. Compounds are tested at a single concentration, which is 10^-5 M for most compounds. The reported endpoint is percent growth (GI% or GIPRCNT), where numbers from 0 - 100% represent growth inhibition, and numbers from -100% - 0 represent cell death. For example, a value of 40 represents 60% growth inhibition. […]
About 83,000 compounds went through this panel and 20% of them were active in at least one assay; those are over-represented in the sample as a whole. Activity calls are given as the source filed them. How the source made its calls: active means growth percent below 10; inactive means the rest.
Readout name: growth

stdin: Quick check: growth of "CCCCCCC/C=N/NC(=O)c1ccc(-n2cc(-c3ccccc3)nn2)cc1" ?
stdout: 87.8% (inactive)

stdin: Check "N#C/C(Sc1nc2sc3c(c2c(=O)n1Cc1ccccc1)CCCC3)=C1/SC=C(c2ccc(Cl)cc2)N1c1ccccc1" too.
stdout: 88.6% (inactive)

stdin: Try this compound next: "COC(=O)c1c(C(=O)OC)c2ccc3c4ncccc4ccc3n2c1C(=O)c1ccc(C)cc1"
stdout: 87.8% (inactive)

---

Hi there, I'd appreciate the recorded growth for every entry that follows.
test system: HOP-62 NSCLC; experiment: NCI-60 one-dose screen, 48 h (100 = growth as untreated, 0 = no growth, -100 = all killed); conditions: 10 µM unless noted
Compounds without any hit were thinned out: in the full panel of roughly 83,000, 20% have a hit.
Express it in %; write the number only.

stdin: Look at this compound and give its reported growth. "COCCn1cc(-c2nc(-c3cc4cccnc4n3C)cs2)c2cc(OC)ccc21"
stdout: 47.2

stdin: // repeat for O=C1OCC2=C1C(c1cccc(F)c1)c1cc3c(cc1N2CCO)CCC3 (stereo not given) and report
stdout: 26.2

stdin: Would you mind doing "O=S(=O)(c1ccc(NCSc2nc3ccccc3s2)cc1)c1ccc(NCSc2nc3ccccc3s2)cc1" as well?
stdout: 66.4

stdin: And the next one, "Cc1c(-c2cnc3ccc(Cl)cc3c2C(=O)O)nnn1-c1ccc(Cl)cc1" ?
stdout: 89.4

stdin: # iterate: CC(Cc1cccc2ccccc12)C(N)=O (stereo not given)
stdout: 94.6

---

test system: HS 578T breast; assay: NCI-60 one-dose screen, 48 h; conditions: 10 µM unless noted
This is part of a sample that, as a whole, favours compounds with a hit. Of some 83,000 tested, about 20% had one in any assay. Activity calls are given as the source filed them. Rule for the calls: active = growth percent below 10; inactive = the rest.
Answer with one of the outcomes given here: active, inactive

stdin: Any idea what this test logged for "c1ccc(-c2nc(N3CCNCC3)c3oc(-c4ccccc4)nc3n2)cc1" ?
stdout: active

stdin: Then "CCOC(=O)c1c(C)c2c(n1Cc1ccccc1)CSc1cc(C#N)c(=O)[nH]c1-2" ?
stdout: inactive

stdin: Try this compound next: "C=C1C(=O)O[C@H]2[C@H]1CC/C(COC(=O)NCc1ccc(Cn3c(=O)sn(CCCC)c3=O)cc1)=C\CC[C@@]1(C)O[C@@H]21"
stdout: inactive

stdin: For COc1ccccc1/C=C/C1=C(C)CCC(c2ccccc2OC)C1C (stereo unspecified) then?
stdout: inactive

stdin: Moving on to the next compound: "CSc1nn2c(-c3cc4cc(Br)ccc4oc3=O)ccnc2c1C#N"
stdout: inactive

stdin: How about "O=C(c1ccc(F)cc1)C1CCN(CCn2c(=O)[nH]c3ccccc3c2=O)CC1" ?
stdout: inactive

stdin: Also check OC1CSSC1Cn1cnc2c(Nc3ccc(F)c(Cl)c3)ncnc21 (stereo unspecified)
stdout: inactive

stdin: Could you do the same for "C=C(C)[C@@H]1CC[C@]2(C#N)CC[C@]3(C)[C@H](CC[C@@H]4[C@@]5(C)CCCNC(C)(C)[C@@H]5CC[C@]43C)[C@@H]12" , please?
stdout: inactive

stdin: Please do the same for "COc1ccc(/C(C)=C(\c2ccc(Cl)cc2)c2ccc(OCCCN(C)C)cc2)cc1" as well.
stdout: inactive

stdin: Now try "Cn1ncc(CC(=O)O)c1-n1nnc2cc(Cl)ccc2c1=O" .
stdout: inactive

stdin: Next record, please: "CC(C)=CC(=O)C1C(=O)c2ccccc2C1=O"
stdout: inactive

---

Hi there, I'd appreciate the recorded growth for every entry that follows.
test system: OVCAR-3 ovarian; assay: NCI-60 one-dose screen, 48 h (100 = growth as untreated, 0 = no growth, -100 = all killed); conditions: 10 µM unless noted
This is part of a sample that, as a whole, favours compounds with a hit. Of some 83,000 tested, about 20% had one in any assay.
Your answer should be a plain number; it is taken to be in %.

stdin: What value of growth has been reported for the following molecule? "CC/C(=C(/c1ccc(Cl)cc1)c1ccc(OCCCN(C)C)cc1)c1ccc(OC)cc1"
stdout: 68.8

stdin: Another molecule to look at: "FC(F)(F)c1cccc(-c2nnn(Cc3cc(-c4cccc(Cl)c4)no3)n2)c1"
stdout: 114

stdin: # repeat for "O=c1c(/C=C/c2c(O)ccc3ccccc23)nnc2sc(-c3cccc([N+](=O)[O-])c3)nn12"
stdout: 15.2

stdin: Next record, please: "C=CCn1c(SCC(=O)Nc2ccc(C(=O)/C=C/c3ccc(Cl)cc3)cc2)nnc1-c1ccccc1"
stdout: 90.2

stdin: Also CC(C)=CCC[C@](C)(O)C1CC[C@]2(C)[C@@H]1CC[C@@H]1[C@@]3(C)CC/C(=N\OCCC#N)C(C)(C)[C@@H]3CC[C@]12C (some centres undefined) ?
stdout: 93.2

stdin: // query: CCCCCN(CCCCC)CC(O)c1c(Cl)ccc2ccccc12 (centres undefined)
stdout: 90.7

stdin: Repeat for the following molecule: Nc1nc(N)c2c(n1)NC(c1ccc3c(c1)OCO3)CC(c1cccc(Nc3ccncc3)c1)=N2 (centres undefined)
stdout: 90.9

stdin: What do you have for "C#Cc1cccc(Nc2nc(Cl)nc3cc(NC(=O)CCl)ccc23)c1" ?
stdout: -88.1

stdin: One more molecule: COc1ccc(C2CC(=O)Oc3c(OC)c4c(c(OC)c32)OCO4)cc1 (centres undefined)
stdout: 109

---

tested on: UACC-257 melanoma; assay: NCI-60 one-dose screen, 48 h (100 = growth as untreated, 0 = no growth, -100 = all killed); conditions: 10 µM unless noted
The panel holds about 83,000 compounds, 20% with a hit somewhere; the sample as a whole holds those more often.
For each of the molecules below, state its growth.
// units = %; emit number, no label

stdin: Give its growth value. Item: "C#CCOc1cc(/C=N/Nc2nc(-c3ccc(OC)cc3)cs2)ccc1O"
stdout: 93.2

stdin: And then CCOC(=O)CC1CSC(N/N=C/c2ccc(O)cc2)=N1 (configuration not stated) , what is it?
stdout: 108

stdin: Param item: "COc1cc(/C=C2\CN(S(=O)(=O)c3ccc(C)cc3)C/C(=C\c3cc(CN4CCCC4)c(O)c(OC)c3)C2=O)cc(CN2CCCC2)c1O"
stdout: 57.7

stdin: Then this molecule: "O=C1C(Nc2ccc(Br)cc2)=C(I)C(=O)c2ncccc21"
stdout: 49.3

stdin: Moving on to "O=C(CN1C(=O)c2ccccc2S1(=O)=O)Nc1nc(-c2cc3ccccc3oc2=O)cs1"
stdout: 99.8

stdin: Field entry: "Cn1nc(-c2ccc(Cl)cc2)nc2c(=O)n(C)c(=O)nc1-2"
stdout: -83.4

stdin: Now give it for "COc1cccc(C(=O)Nc2cccc(NC(=O)c3ccccn3)c2)c1" too.
stdout: 109

stdin: Can you check "COc1nc2ccccc2cc1/C=C1/C=C(c2ccccc2)NC1=O" next?
stdout: 60.7

stdin: Same for "CN(C)C(=O)OCc1ccc2c(Cl)cc(Cl)c(O)c2n1"
stdout: 48.5

stdin: One more molecule: "COc1cc(CNC(=O)CCCC/C=C/C(C)C)ccc1OCc1cn(-c2ccc(C(F)(F)F)cc2)nn1"
stdout: 98.2

stdin: Same question, "C=C(C[n+]1ccccc1)[C@@H]1CC[C@]2(C(=O)OC)CC[C@]3(C)[C@H](CC[C@@H]4[C@@]5(C)CCC(=O)C(C)(C)[C@@H]5CC[C@]43C)[C@@H]12" this time
stdout: 53.4

stdin: And what about the molecule "C=CCn1c(SCC(=O)Nc2ccc(C(=O)/C=C/c3ccc(Cl)cc3)cc2)nnc1-c1ccccc1" ?
stdout: 111

stdin: Query "CC(C)=CC(=O)C1C(=O)c2ccccc2C1=O" next
stdout: 107

stdin: What do you have for COc1c(O[C@@H]2OC(CO)[C@H](O)[C@H](O)C2O)cc2oc3cc(O)c(CC=C(C)C)c(O)c3c(=O)c2c1CC=C(C)C (some centres not stated) ?
stdout: 91.3

stdin: What would you report for "CCN(CC)c1ccc(/C=N/NC(=O)c2ccccc2Nc2ccnc(C(F)(F)F)c2)c(O)c1" ?
stdout: 19.2

stdin: Query "COc1ccc2c(c1)c(-c1nc(-c3cn(C)c4ccncc34)cs1)cn2C" next
stdout: 114

stdin: Next molecule up: "COc1cc(C(=O)n2nc(NCCCc3ccccc3)c3cc(N)ccc32)cc(OC)c1OC"
stdout: 120

stdin: Then "c1ccc2cc(Cn3cc[n+](Cc4ccc5ccccc5c4)c3)ccc2c1" ?
stdout: -9.54

stdin: Same read-out for CCN1C(=O)N(CC)C2C1NN=c1s/c(=C\c3ccc(F)cc3)c(=O)n12 (configuration not stated) ?
stdout: 56

stdin: And for "C=C(C)[C@@H]1CCC[C@]2(C(=O)OC)CC[C@]3(C)[C@@H](CC[C@@H]4[C@@]5(C)CCCNC(C)(C)[C@@H]5CC[C@]43C)[C@@H]12" ?
stdout: 98.9

stdin: Item: "O=C1N/C(=N/N=C(c2ccccc2)c2ccccc2)S/C1=C\c1ccc(Br)cc1"
stdout: 83.5

stdin: Now the same for "CSc1nc(CC(C)C)c(C#N)c(=O)n1C"
stdout: 78.6

stdin: Repeat with N#C/C(=C\c1cccc2cnccc12)N1N=NC2C=CC=CC21 (configuration not stated)
stdout: 46.9

stdin: Moving on to the next molecule: COc1ccccc1/C=C/C1=C(C)CCC(c2ccccc2OC)C1C (configuration not stated)
stdout: 57.9

stdin: Lookup "O=c1cc(-c2nccc3c2[nH]c2ccccc23)c2cc(Cl)ccc2o1"
stdout: 35.4

stdin: Also, "CCOC(=O)c1ccc2c(c1)[n+](=O)c(C(C)=O)c(C(F)(F)F)n2[O-]" please.
stdout: -37.1

stdin: Now the molecule Cc1ccc(C23CCC(=O)N2CCc2cncn23)cc1 (configuration not stated)
stdout: 100
